System: NCI/ADR-RES ovarian
Assay: NCI-60 one-dose screen, 48 h
Conditions: 10 µM unless noted
About 83,000 compounds went through this panel and 20% of them were active in at least one assay; those are over-represented in the sample as a whole. The source made the active and inactive calls. Rule for the calls: active = growth percent below 10; inactive = the rest.
Hello, when you answer, please use one of the following outcomes: active, inactive

{"columns": ["MOLECULE", "GROUP"],
 "data": [
  ["CCOc1nc(-c2ccccc2)cc2c(O)c(C(=O)N/N=C/c3ccc(O)cc3O)[nH]c(=O)c12", "active"],
  ["O=C1OC(c2ccccc2)C(O)=C1c1ccccc1 (stereo not given)", "inactive"],
  ["Cc1ccc2c(C(C[N+](=O)[O-])c3ccccc3)c(-c3ccccc3)[nH]c2c1 (stereo not given)", "inactive"],
  ["O=C(N=Nc1c(O)[nH]c2ccc(Br)cc12)c1cc(-c2ccccc2)on1", "inactive"],
  ["COc1ccc(/C=C2\\Oc3cc(OCCCCN4CCCC4)ccc3C2=O)cc1", "inactive"],
  ["COc1cc2c(cc1OC)C(Sc1ccc(SC)cc1)c1c(nc(N)c(C#N)c1N)O2 (stereo not given)", "active"],
  ["O=C(/C=C/c1cccc(Cl)c1)c1ccc(O)c(CN2CCN(c3cc4c(cc3F)c(=O)c(C(=O)O)cn4C3CC3)CC2)c1", "inactive"],
  ["CC/C=C\\C[C@H](O)C/C=C1/C(=O)C=C[C@@]1(C)C/C=C\\CCCC(=O)OC", "inactive"],
  ["CCCn1c(=O)[nH]c(N)c([C@H]2c3ccccc3Oc3[nH]c(=O)n(CCC)c(=O)c32)c1=O", "inactive"]
]}

// next entry
What call does the record list for `O=c1ccccc(-c2ccc(Br)cc2)c1O` ?
active

---

Tested on: HCT-116 colon
Assay: NCI-60 one-dose screen, 48 h
Conditions: 10 µM unless noted
Procedure: Growth inhibition of the HCT-116 human tumor cell line is measured as a screen for anti-cancer activity. Cells are grown in 96 well plates and exposed to the test compound for 48 hours. Compounds are tested at a single concentration, which is 10^-5 M for most compounds. The reported endpoint is percent growth (GI% or GIPRCNT), where numbers from 0 - 100% represent growth inhibition, and numbers from -100% - 0 represent cell death. For example, a value of 40 represents 60% growth inhibition. […]
Compounds without any hit were thinned out: in the full panel of roughly 83,000, 20% have a hit. Calls of active or inactive are those of the source. How the source made its calls: active means growth percent below 10; inactive means the rest.
Hello, when you answer, please use one of the following outcomes: label 1 (active), label 0 (inactive)

Answered examples (3):
{"columns": ["MOLECULE", "GROUP"],
 "data": [
  ["CC[C@@H](C(=O)[C@@H](C)[C@@H](O)[C@H](C)[C@@H]1O[C@@H]([C@@H](CC)C(=O)O)CC[C@@H]1C)[C@H]1OC2(C=C[C@@H](O)[C@]3(CC[C@@](C)([C@H]4CC[C@](O)(CC)[C@H](C)O4)O3)O2)[C@H](C)C[C@@H]1C (stereo partly drawn)", "label 0"],
  ["CCc1nc(N)nc(N)c1C#CC(C)c1cc(-c2ccnc(C)c2)c2oc(C)nc2c1 (stereo not drawn)", "label 0"],
  ["C#Cc1cccc(NC(=O)c2ccccc2NC(=O)C=C)c1", "label 0"]
]}

What call does the record list for O=C1/C(=C/N2N=C(c3ccc4ccccc4c3)CC2c2ccccc2O)SC(=S)N1c1cccnc1 (stereo not drawn) ?
label 0

What call does the record list for `COc1ccc2[nH]cc(-c3noc(C(=O)c4cn(C)c5ccc(F)cc45)n3)c2c1` ?
label 0

What call does the record list for `COc1ccc(C(=O)COc2ccc(/C=C3\Oc4ccc(OC)cc4C3=O)cc2)cc1` ?
label 0

What call does the record list for `Cc1cc(N2CCN(c3ccnc4cc(Cl)ccc34)CC2)nc(NC2CCCCC2)n1` ?
label 1

What call does the record list for `O=S(=O)(Nc1ccc(OC(F)F)cc1)c1ccc(-c2cnc(C3CC3)o2)cc1` ?
label 0

---

Tested on: KM12 colon
Assay: NCI-60 one-dose screen, 48 h
Conditions: 10 µM unless noted
Compounds without any hit were thinned out: in the full panel of roughly 83,000, 20% have a hit. Activity calls are given as the source filed them. Rule for the calls: active = growth percent below 10; inactive = the rest.
Hello, when you answer, please use one of the following outcomes: active, inactive

Answered examples (2):
{"columns": ["COMPOUND", "GROUP"],
 "data": [
  ["CSc1nc2c(c(=O)[nH]1)C1(C(=O)Nc3ccccc31)c1c(nc(SC)[nH]c1=O)N2", "inactive"],
  ["CCC#CC[C@H](O)C/C=C1/C(=O)C=C[C@@H]1C/C=C\\CCCC(=O)OC", "active"]
]}

What call does the record list for `O=C(O)c1c(=O)cccc2ssc12` ?
active

What call does the record list for `Cc1cc(C)c2nc3nc(C)cc(C)c3c(N)c2c1` ?
inactive

What call does the record list for `C#CCOc1ccc2ncnc(NCc3cccc(NC(=O)CCl)c3)c2c1` ?
inactive

---

Test system: U251 CNS
Experiment: NCI-60 one-dose screen, 48 h (100 = growth as untreated, 0 = no growth, -100 = all killed)
Details: 10 µM unless noted
About 83,000 compounds went through this panel and 20% of them were active in at least one assay; those are over-represented in the sample as a whole. The source made the active and inactive calls. The calls were made as follows: active = growth percent below 10; inactive = the rest.
READOUT LABEL: growth

Which measured growth belongs to CC1C(/C=N/Nc2ccccc2)C(C#N)(C#N)C1(C#N)C#N (stereo not given) , tested on U251 CNS?
101% (inactive)

Which measured growth belongs to `CCN=C1C=CC(=C(c2ccc(N)cc2)c2ccc(N(CC)CC)c(C)c2)C=C1` , tested on U251 CNS?
-19% (active)

Which measured growth belongs to `CCCCN1CCCn2c1nc1c2c(=O)n(CCC)c(=O)n1CCC` , tested on U251 CNS?
91.8% (inactive)

Which measured growth belongs to `Cn1cc(-c2nonc2-c2cn(C)c3ccc(F)cc23)c2ccccc21` , tested on U251 CNS?
23.5% (inactive)

---

Tested on: MCF7 breast
Test: NCI-60 one-dose screen, 48 h
Settings: 10 µM unless noted
Compounds without any hit were thinned out: in the full panel of roughly 83,000, 20% have a hit. Active and inactive are the calls of the source. Rule for the calls: active = growth percent below 10; inactive = the rest.
Hello, when you answer, please use one of the following outcomes: active, inactive

Answered examples (5):
{"columns": ["COMPOUND", "GROUP"],
 "data": [
  ["O=C(N=Nc1c(O)[nH]c2ccccc12)c1cc(-c2ccccc2)on1", "inactive"],
  ["Cc1cc(N2CCN(C)CC2)nc(NC2CCCC(Nc3ccnc4cc(Cl)ccc34)C2)n1 (stereo not given)", "active"],
  ["N#Cc1c(-c2ccc(Cl)cc2)nc(N=Nc2c(O)[nH]c3ccc(Cl)cc23)nc1N1CCOCC1", "inactive"],
  ["N#CN1CC[C@H](C(=O)Nc2cc3cc(C(N)=O)ccc3cn2)C1", "active"],
  ["c1ccc(CCNc2ncnc3[nH]ncc23)cc1", "inactive"]
]}

What call does the record list for `Cc1ccccc1COc1ccc(-c2ccnn2-c2ccc(Cl)cc2)cc1` ?
inactive

What call does the record list for Nc1n[nH]c2ccc([C@@H]3Nc4ccc5cn[nH]c5c4[C@H]4C5CCC(C5)[C@@H]34)cc12 (stereo not given in full) ?
inactive

What call does the record list for `O=C1/C(=C/c2ccc3c(c2)OCO3)SC(=S)N1CCc1ccc(O)cc1` ?
inactive

What call does the record list for `COc1ccc2cc(-c3nn(-c4ccc(C(=O)O)cc4)cc3CO)ccc2c1` ?
inactive

What call does the record list for `O=C1Nc2c(ccc(Cl)c2Cl)/C1=C\c1cc(C(F)(F)F)cc(C(F)(F)F)c1` ?
active

What call does the record list for `O=C1CC(=NCC(=O)n2c(-c3ccccc3)nc3ccccc32)NN1` ?
inactive

What call does the record list for COc1ccc(SC2c3cc(OC)c(OC)cc3Oc3nc(N)c(C#N)c(N)c32)cc1 (stereo not given) ?
active

What call does the record list for `CC(=O)c1cc2c(N)c(C(=O)Nc3cccc(F)c3C)sc2nc1C` ?
inactive

What call does the record list for Cc1ccc(NC(=O)C2CCC(CN3CCN(C)CC3)CC2)cc1Nc1nccc(-c2cccnc2)n1 (stereo not given) ?
inactive

What call does the record list for `C(=C\c1nccc2c1[nH]c1ccccc12)/c1ccccc1` ?
active

What call does the record list for `COc1ccc(-c2nc3ccc(-c4nc5ccc(N6CCN(c7ccncc7)CC6)cc5[nH]4)cc3[nH]2)cc1OC` ?
inactive

What call does the record list for COc1cccc2c1C(=O)c1c(O)c3c(c(O)c1C2=O)C[C@](O)(C(=O)CO)C[C@H]3O[C@@H]1C[C@@H](NC(=O)CCCCCN(C)C2(c3ccc(F)cc3)CC3CCC2C3)[C@H](O)[C@@H](C)O1 (stereo not given in full) ?
active

What call does the record list for `O=CNc1ccc2c(c1)Cc1cccc(NC=O)c1-2` ?
inactive

What call does the record list for `COc1cc(-c2nn(-c3ccc(Br)cc3)cc2C(=O)O)ccc1O` ?
inactive

What call does the record list for `NC(=O)c1cc(Br)ccc1NC(=O)/C=C/c1ccccc1` ?
inactive

What call does the record list for `Fc1ccc(CNc2cccc3[nH]c(C(F)(F)F)nc23)cc1` ?
inactive

What call does the record list for CCOc1cc2ncc(C#N)c(Nc3ccc(OCc4cccc(F)c4)c(Cl)c3)c2cc1NC(=O)CC1CCSS1 (stereo not given) ?
active

What call does the record list for `COc1cccc(-c2nc3sccn3c2-c2ccnc(NCCCNS(=O)(=O)c3cccc(Cl)c3)c2)c1` ?
inactive

What call does the record list for `Clc1ccc2c(NCCNc3nc(N4CCCCC4)nc4ccccc34)ccnc2c1` ?
inactive

Origin of the recorded values: PubChem BioAssay (NCI)
